Provide the reported selectivity ratio of each item.
experiment: Selectivity index, ratio of CC50 for MDCK cells by neutral red method to EC50 for Influenza A virus (A/California/07/2009(H1N1) virus by neutral red method; assay type: toxicity, cell-based; conditions: dog, read-out: Ratio CC50/EC50

• NC(=O)c1ncn([C@@H]2O[C@H](CO)[C@@H](O)[C@H]2O)n1 = > 2

Value sought for every listed compound: selectivity ratio.
1. CCOC(=O)C1=C(C)N(c2ccccc2)/C(=C2\S/C(=N/c3nc(-c4c(C)n(C)n(-c5ccccc5)c4=O)cs3)N(c3ccccc3)C2=O)S1
2. Cc1c(-c2csc(/N=C3/S/C(=C4/SCC(=O)N4c4ccccc4)C(=O)N3c3ccccc3)n2)c(=O)n(-c2ccccc2)n1C

Resp:
1. > 1.1
2. > 4.3

====

assay: Cytotoxicity against MDCK cells assessed as cell viability by visual assay; format: cell-based, Canis lupus familiaris; settings: dog
measurementKind: CC50

Answered cases to consult:
* CCOC(=O)C1=C(C)N(c2ccccc2)/C(=C2\S/C(=N/c3nc(-c4c(C)n(C)n(-c5ccccc5)c4=O)cs3)N(c3ccccc3)C2=O)S1 | > 100 µg/mL
* Cc1c(-c2csc(/N=C3/S/C(=C4/SCC(=O)N4c4ccccc4)C(=O)N3c3ccccc3)n2)c(=O)n(-c2ccccc2)n1C | > 100 µg/mL

Consider now this further molecule.
So for NC(=O)c1ncn([C@@H]2O[C@H](CO)[C@@H](O)[C@H]2O)n1 , the logged CC50 turned out to be > 320 µg/mL

====

test: Selectivity index, ratio of CC50 for MDCK cells by visual method to EC50 for Influenza A virus (A/California/07/2009(H1N1) virus by visual method; type: toxicity, cell-based; conditions: dog, read-out: Ratio CC50/EC50
measurementKind: selectivity ratio

Answered cases to consult:
- NC(=O)c1ncn([C@@H]2O[C@H](CO)[C@@H](O)[C@H]2O)n1: > 32
- CCOC(=O)C1=C(C)N(c2ccccc2)/C(=C2\S/C(=N/c3nc(-c4c(C)n(C)n(-c5ccccc5)c4=O)cs3)N(c3ccccc3)C2=O)S1: > 1.5

So for Cc1c(-c2csc(/N=C3/S/C(=C4/SCC(=O)N4c4ccccc4)C(=O)N3c3ccccc3)n2)c(=O)n(-c2ccccc2)n1C , the logged selectivity ratio turned out to be > 4.2

====

tested on: Hepatitis C virus; assay: Antiviral activity against HCV 2a/2a (J6/JFH1) infected in human Huh7.5 cells assessed as reduction of virus induced cytopathic effect by luciferase reporter assay; format: functional, organism-based, Hepacivirus hominis; settings: Huh-7
measurementKind: pEC50
One number for each entry, as −log10 of the molar value.

So for CC(=O)C1=NN(c2ccccc2)/C(=C2\S/C(=N/c3nc(-c4c(C)n(C)n(-c5ccccc5)c4=O)cs3)N(c3ccccc3)C2=O)S1 , the logged pEC50 turned out to be 5.81

====

assay: Selectivity index, ratio of CC50 for luciferase expressing Huh/NeoET cells to EC50 for Hepatitis C virus 1b CON1; type: toxicity, cell-based; details: human, read-out: Ratio CC50/EC50
measurementKind: selectivity ratio

Value sought for every listed compound: selectivity ratio.
1. COc1ccc(N2N=C(C(C)=O)S/C2=C2/S/C(=N/c3nc(-c4c(C)n(C)n(-c5ccccc5)c4=O)cs3)N(c3ccccc3)C2=O)cc1
2. CC(=O)C1=NN(c2ccccc2)/C(=C2\S/C(=N/c3nc(-c4c(C)n(C)n(-c5ccccc5)c4=O)cs3)N(c3ccccc3)C2=O)S1
3. CC(=O)C1=NN(c2ccc(Cl)cc2)/C(=C2\S/C(=N/c3nc(-c4c(C)n(C)n(-c5ccccc5)c4=O)cs3)N(c3ccccc3)C2=O)S1
4. CC(=O)C1=NN(c2ccc(C)cc2)/C(=C2\S/C(=N/c3nc(-c4c(C)n(C)n(-c5ccccc5)c4=O)cs3)N(c3ccccc3)C2=O)S1
5. Cc1c(-c2csc(/N=C3/S/C(=C4/SCC(=O)N4c4ccccc4)C(=O)N3c3ccccc3)n2)c(=O)n(-c2ccccc2)n1C

Resp:
["> 7", "> 36", "> 18", "> 19", "> 2"]

====

assay: Selectivity index, ratio of CC50 for human HuH7 cells to EC50 for Hepatitis C virus 1a H77; type: toxicity, cell-based, Huh-7; conditions: read-out: Ratio CC50/EC50
measurementKind: selectivity ratio
One number for each entry.

So for CC(=O)C1=NN(c2ccccc2)/C(=C2\S/C(=N/c3nc(-c4c(C)n(C)n(-c5ccccc5)c4=O)cs3)N(c3ccccc3)C2=O)S1 , the logged selectivity ratio turned out to be 1

====

assay: Cytotoxicity against human HuH7 cells assessed as cell viability by cytoTox1 cell proliferation assay; type: cell-based, Huh-7
measurementKind: CC50

So for CC(=O)C1=NN(c2ccccc2)/C(=C2\S/C(=N/c3nc(-c4c(C)n(C)n(-c5ccccc5)c4=O)cs3)N(c3ccccc3)C2=O)S1 , the logged CC50 turned out to be > 20 µM

====

assay: Cytotoxicity against human Huh7.5 cells assessed as cell viability by cytoTox1 cell proliferation assay; assay type: cell-based, Huh-7.5
measurementKind: CC50

So for CC(=O)C1=NN(c2ccccc2)/C(=C2\S/C(=N/c3nc(-c4c(C)n(C)n(-c5ccccc5)c4=O)cs3)N(c3ccccc3)C2=O)S1 , the logged CC50 turned out to be > 20 µM

====

test: Cytotoxicity against MDCK cells assessed as cell viability by neutral red assay; type: cell-based, Canis lupus familiaris; conditions: dog
Provide the reported CC50 of each item.

Answered cases to consult:
* CCOC(=O)C1=C(C)N(c2ccccc2)/C(=C2\S/C(=N/c3nc(-c4c(C)n(C)n(-c5ccccc5)c4=O)cs3)N(c3ccccc3)C2=O)S1 | > 100 µg/mL
* Cc1c(-c2csc(/N=C3/S/C(=C4/SCC(=O)N4c4ccccc4)C(=O)N3c3ccccc3)n2)c(=O)n(-c2ccccc2)n1C | > 100 µg/mL

Consider now this further molecule.
So for NC(=O)c1ncn([C@@H]2O[C@H](CO)[C@@H](O)[C@H]2O)n1 , the logged CC50 turned out to be > 320 µg/mL
